Entry source: patent US20240239790A1

PROTOCOL_SUMMARY: Pharmacokinetic study in male Sprague-Dawley rats (IV and PO), plasma
Type: in vivo, rat
TEST_CONDITIONS: male, Sprague-Dawley; rat plasma, PO, 30 mg/kg; read-out: AUCINF—obs
ENDPOINT_LABEL: AUC(0-inf) (ng·h/mL)

# COMPOUND, DISPLAY_UNIT, RECORDED_MEASUREMENT
measured = [
    ("O=C(COc1cnc(N[C@H]2CC[C@@H](Oc3nc(N4CCOCC4)cc4ncccc34)CC2)nc1)N1CCOCC1 [Compound 61]", "ng·h/mL", 15800),
]

[a] CN(C)C(=O)Cn1ccc2nc(N[C@H]3CC[C@@H](Oc4nc(N5CCOCC5)cc5ncccc45)CC3)ncc21 [Compound 86]
[b] CN1CCN(CCOc2cnc(N[C@H]3CC[C@@H](Oc4nc(N5CCOCC5)cc5ncccc45)CC3)nc2)CC1 [Compound 69]
Select the item with the higher value of AUC(0-inf) from the options a and b listed. Return value: the label identifying the chosen record.
a
(a: 14100 ng·h/mL, b: 5890 ng·h/mL)

====

Measured pIC50 values are reported for all entries that follow.
TGT: DNA-PK (Homo sapiens)
Construct: purchased Invitrogen PR9107A
PROTOCOL_SUMMARY: DNA-PK Assay for Biochemical Enzymatic Inhibition (ADP Glo Kinase assay)
TEST_CONDITIONS: DNA-PK enzyme, Table 1
pIC50: −log10 of the molar value.

Worked examples, 4 compounds total:
# COMPOUND, TGT, RECORDED_MEASUREMENT
measured = [
    ("CN(C)CCOc1cnc(N[C@H]2CC[C@@H](Oc3nc(N4CCOCC4)cc4ncccc34)CC2)nc1", "DNA-PK (Homo sapiens)", "> 9.30"),
    ("O=c1[nH]c2cnc(N[C@H]3CC[C@@H](Oc4nc(N5CCOCC5)cc5ncccc45)CC3)nc2n1C1CCOCC1", "DNA-PK (Homo sapiens)", "9.00 to 9.30"),
    ("O=C(NO)c1cnc2cc(N3CCOCC3)nc(O[C@H]3CC[C@@H](n4ccnc4)CC3)c2c1", "DNA-PK (Homo sapiens)", "> 9.30"),
    ("CN(C)C(=O)COc1cnc(C(=O)N[C@H]2CC[C@@H](Oc3nc(N4CCOCC4)cc4ncccc34)CC2)nc1", "DNA-PK (Homo sapiens)", "9.00 to 9.30"),
]

Consider now this further compound.
Tested system DNA-PK (Homo sapiens); pIC50 recorded for CS(=O)(=O)c1cnc2cc(N3CCOCC3)nc(O[C@H]3CC[C@@H](Nc4ncnc5ccoc45)CC3)c2c1 [Compound 204b] was > 9.30

====

PROTOCOL_SUMMARY: Pharmacokinetic study in male Sprague-Dawley rats (IV and PO), plasma
Format: in vivo, rat
TEST_CONDITIONS: male, Sprague-Dawley; rat plasma, PO, 10 mg/kg
ENDPOINT_LABEL: AUC(0-t) (ng·h/mL)

# COMPOUND_STRING, ENDPOINT_LABEL, DISPLAY_UNIT, RECORDED_MEASUREMENT
records = [
    ("CN(C)C(=O)Cn1ccc2nc(N[C@H]3CC[C@@H](Oc4nc(N5CCOCC5)cc5ncccc45)CC3)ncc21", "AUC(0-t)", "ng·h/mL", 1290),
]

[1] CN1CCN(CCOc2cnc(N[C@H]3CC[C@@H](Oc4nc(N5CCOCC5)cc5ncccc45)CC3)nc2)CC1
[2] O=C(COc1cnc(N[C@H]2CC[C@@H](Oc3nc(N4CCOCC4)cc4ncccc34)CC2)nc1)N1CCOCC1
Which entry has a larger number for AUC(0-t), 1 or 2 ? Indicate which entry you chose by stating its label.
1

====

PROTOCOL_SUMMARY: Pharmacokinetic study in mice (IV and PO), plasma
Assay type: in vivo, mouse
TEST_CONDITIONS: female, C57BL/6; mouse plasma, IV, 1 mg/kg
Experimental: Pharmacokinetic analysis of compounds was conducted following bolus intravenous (IV) or bolus oral (PO) gavage in mice. […] The in-vivo study plasma samples were analyzed using Ultra Performance Liquid Chromatography (UPLC) with tandem mass spectrometry (MS/MS) detection in multiple reaction monitoring (MRM) mode. […]
ENDPOINT_LABEL: C0 (ng/mL)
Numeric only. Scale: ng/mL

# compound CN(C)C(=O)COc1cnc(N[C@H]2CC[C@@H](Oc3nc(N4CCOCC4)cc4ncccc34)CC2)nc1 [Compound 54] ; its C0 = 3310

====

TGT: DNA-PK phosphorylation at Serine 2056 (Homo sapiens, UniProt P78527)
Construct: FaDu cells were purchased from ATCC; host or cells: FaDu
PROTOCOL_SUMMARY: Cellular Assay for Inhibition of DNA-PK Phosphorylation at Serine 2056 in FaDu cells (sandwich ELISA, neocarzinostatin)
Type: cell-based
TEST_CONDITIONS: pSer2056 DNA-PK, Table 3
pIC50: −log10 of the molar value.
ENDPOINT_LABEL: pIC50

# MOLECULE, RECORDED_MEASUREMENT
rows = [
    ("CC(Oc1cnc2cc(N3CCOCC3)nc(O[C@H]3CC[C@@H](c4cnccn4)CC3)c2c1)c1cnc([N+](=O)[O-])n1C (stereo partly drawn) [LFA2041]", "4.52 to 5.00"),
    ("CC(NS(=O)(=O)c1cnc2cc(N3CCOCC3)nc(O[C@H]3CC[C@@H](Nc4ncc(C(F)(F)F)cn4)CC3)c2c1)c1cnc([N+](=O)[O-])n1C (stereo partly drawn) [LFA2092]", "4.52 to 5.00"),
    ("CC(c1cnc([N+](=O)[O-])n1C)N(c1cnc2cc(N3CCOCC3)nc(O[C@H]3CC[C@@H](Nc4nccnc4C#N)CC3)c2c1)S(C)(=O)=O (stereo partly drawn) [LFA2100]", "4.52 to 5.00"),
]

Reading of pIC50 for Cc1ccc(N[C@H]2CC[C@@H](Oc3nc(N4CCOCC4)cc4ncc(OC(C)c5cnc([N+](=O)[O-])n5C)cc34)CC2)nc1 (stereo partly drawn) [LFA2105] with DNA-PK phosphorylation at Serine 2056 (Homo sapiens, UniProt P78527): 4.52 to 5.00

Noted pIC50 for CC(Oc1cnc2cc(N3CCOCC3)nc(O[C@H]3CC[C@@H](Nc4ncc(N5CCN(C)CC5)cn4)CC3)c2c1)c1cnc([N+](=O)[O-])n1C (stereo partly drawn) [LFA2066] , tested on DNA-PK phosphorylation at Serine 2056 (Homo sapiens, UniProt P78527): 4.52 to 5.00

The molecule CS(=O)(=O)Nc1cnc2cc(N3CCOCC3)nc(O[C@H]3CC[C@@H](Nc4ncc(N5CCNCC5)cn4)CC3)c2c1 [LFA2014] on DNA-PK phosphorylation at Serine 2056 (Homo sapiens, UniProt P78527): pIC50 was 6.00 to 7.00

====

TGT: DNA-PK phosphorylation at Serine 2056 (Homo sapiens, UniProt P78527)
Construct: FaDu cells were purchased from ATCC; host or cells: FaDu
PROTOCOL_SUMMARY: Cellular Assay for Inhibition of DNA-PK Phosphorylation at Serine 2056 in FaDu cells (sandwich ELISA, neocarzinostatin)
Type: cell-based
TEST_CONDITIONS: pSer2056 DNA-PK, neocarzinostatin 1 μg/mL, Table 1
Quick list: IC50 per entry.

These recorded examples may help you get a feel for the data.
# COMPOUND, RECORDED_MEASUREMENT
data = [
    ("NCCOc1cnc(N[C@H]2CC[C@@H](Oc3nc(N4CCOCC4)cc4ncccc34)CC2)nc1", "< 100 nM"),
    ("NC(=O)Nc1cnc2cc(N3CCOCC3)nc(O[C@H]3CC[C@@H](Nc4ncccn4)CC3)c2c1", "100 to 1000 nM"),
    ("O=C(O)COc1cnc(N[C@H]2CC[C@@H](Oc3nc(N4CCOCC4)cc4ncccc34)CC2)nc1", "10000 to 30000 nM"),
    ("c1ccc(CSc2cnc3cc(N4CCOCC4)nc(O[C@H]4CC[C@@H](Nc5ncccn5)CC4)c3c2)cc1 [Compound 200c]", "10000 to 30000 nM"),
    ("Cn1cc([C@H]2CC[C@@H](Oc3nc(N4CCOCC4)cc4ncc(OCCN5CCOCC5)cc34)CC2)cn1", "100 to 1000 nM"),
]

Field IC50 (system: DNA-PK phosphorylation at Serine 2056 (Homo sapiens, UniProt P78527)) for entry O=C(Cn1c(=O)n(C2CCOCC2)c2nc(N[C@H]3CC[C@@H](Oc4nc(N5CCOCC5)cc5ncccc45)CC3)ncc21)N1CCOCC1 = < 100 nM

DNA-PK phosphorylation at Serine 2056 (Homo sapiens, UniProt P78527) IC50 of NC(=O)N[C@H]1CC[C@@H](Oc2nc(N3CCOCC3)cc3ncccc23)CC1 is 100 to 1000 nM

====

PROTOCOL_SUMMARY: Microsomal Stability Assay, human liver microsomes
Type: in vitro ADME
TEST_CONDITIONS: human liver microsomes, 60 min
Description: Samples were then mixed and centrifuged. Supernatants were used for HPLC-MS/MS analysis. […] Peak areas corresponding to the test compound were recorded.

# COMPOUND, Microsomal Stability Human % rem. 60 min
measured = [
    ("CN(C)C(=O)COc1ccc(C(=O)N[C@H]2CC[C@@H](Oc3nc(N4CCOCC4)cc4ncccc34)CC2)cn1 [Compound 117]", "E (% remaining = 0-25%)"),
    ("CN(C)C(=O)Cn1c(=O)n(C2CCOCC2)c2nc(N[C@H]3CC[C@@H](Oc4nc(N5CCOCC5)cc5ncccc45)CC3)ncc21 [Compound 97]", "E (% remaining = 0-25%)"),
]
